test system: 519858-162-T-J1-PDC complex spheroid viability; experiment: Anticancer human tumor 519858-162-T-J1-PDC patient-derived colon adenocarcinoma cell line growth inhibition [GQUAD]; conditions: second compound 1 µM; first compound 3.16 µM; active means viability on the fitted dose curve at most 10% of control; inactive means the rest;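 further: spheroids exposed to compounds for 7 days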
One label from this list, please: True (active), False (inactive)

As a guide, the following entries are already answered.
>>> assigned_label("COc1ncnc(C2CC2)c1-c1ncc2cnn(Cc3ccc(-c4nc(C(F)(F)F)cn4C(C)C)cc3)c2n1 + CN(C)c1ccc(Nc2c3ccc(NC(=O)CCN4CCCC4)cc3nc3cc(NC(=O)CCN4CCCC4)ccc23)cc1")
"False"
>>> assigned_label("CC(=O)O[C@H]1C(=O)[C@@]2(C)[C@H]([C@H](OC(=O)c3ccccc3)[C@]3(O)C[C@H](OC(=O)[C@H](O)[C@@H](NC(=O)c4ccccc4)c4ccccc4)C(C)=C1C3(C)C)[C@]1(OC(C)=O)CO[C@@H]1C[C@@H]2O + Cc1[nH]c2ccc(F)cc2c1-c1nc2c3cccnc3c3ncccc3c2[nH]1")
"False"
>>> assigned_label("CC(=O)O[C@H]1C(=O)[C@@]2(C)[C@H]([C@H](OC(=O)c3ccccc3)[C@]3(O)C[C@H](OC(=O)[C@H](O)[C@@H](NC(=O)c4ccccc4)c4ccccc4)C(C)=C1C3(C)C)[C@]1(OC(C)=O)CO[C@@H]1C[C@@H]2O + CN(C)c1ccc(Nc2c3ccc(NC(=O)CCN4CCCC4)cc3nc3cc(NC(=O)CCN4CCCC4)ccc23)cc1")
"False"
>>> assigned_label("CC(C)n1c(=O)n(C)c2cnc3cc(F)c(-c4ccc(OCCCN5CCCCC5)nc4)cc3c21 + Cc1[nH]c2ccc(F)cc2c1-c1nc2c3cccnc3c3ncccc3c2[nH]1")
"False"
>>> assigned_label("CC1COCCN1c1cc(C2(S(C)(=N)=O)CC2)nc(-c2ccnc3[nH]ccc23)n1 (centres undefined) + Cc1[nH]c2ccc(F)cc2c1-c1nc2c3cccnc3c3ncccc3c2[nH]1")
"False"

Turning now to a further compound:
Record lookup: outcome of this test for C=CCn1c(=O)c2cnc(Nc3ccc(N4CCN(C)CC4)cc3)nc2n1-c1cccc(C(C)(C)O)n1 + CN(C)c1ccc(Nc2c3ccc(NC(=O)CCN4CCCC4)cc3nc3cc(NC(=O)CCN4CCCC4)ccc23)cc1 ?
False
